Field: T/C. Provide a value for each of the molecules that follow.
System: BDF1 mice, P388 leukemia ip, median survival T/C
Assay: NCI In Vivo Anticancer Drug Screen. Data for tumor model P388 Leukemia (intraperitoneal) in B6D2F1 (BDF1) mice
Conditions: endpoint: median survival time; dose: 200.0 mg/kg/injection; schedule: Q01DX009 (ip); vehicle: saline; higher = longer survival
Inconclusive results and toxic doses are left out. Non-standard residues stand in square brackets, D forms with d. Residues, ends and D or L forms follow the SMILES beside them. *: point of attachment. NMeY = CN[CH](Cc1ccc(O)cc1)C(=O)O; Bn = c1ccc(C*)cc1

Field: example entries. Status: answers known.
>  <molecule>
S=c1nc[nH]c2nc[nH]c12.[Ag]

>  <endpoint_name>
T/C

>  <endpoint_result>
108 % of control

$$$$
>  <molecule>
COC1N(C2CC(O)C(CO)O2)C(=O)NC(=O)C1(F)Br (stereo unspecified)

>  <endpoint_name>
T/C

>  <endpoint_result>
106 % of control

$$$$
>  <molecule>
CC(=N\O)/C(C)=N/O.CC(=N\O)/C(C)=N/O.[Cl][Rh][Cl]

>  <endpoint_name>
T/C

>  <endpoint_result>
100 % of control

$$$$
>  <molecule>
O=[N+]([O-])c1ccc(N/N=C/CC(O)CO)c([N+](=O)[O-])c1 (stereo unspecified)

>  <endpoint_name>
T/C

>  <endpoint_result>
120 % of control

$$$$
>  <molecule>
CNC(Cc1ccc(OCc2ccccc2)cc1)C(=O)NC(CC(C)C)C(=O)OC (stereo unspecified) (H-[NMeY](Bn)-Leu-OMe; configuration not given here)

>  <endpoint_name>
T/C

>  <endpoint_result>
106 % of control

$$$$

We now examine a further molecule.
Sure, the documented T/C for OCc1cccnc1 is 100 % of control

###

Please respond with reported T/C for every item in the list.
Test system: BDF1 mice, P388 leukemia ip, median survival T/C
Assay: NCI In Vivo Anticancer Drug Screen. Data for tumor model P388 Leukemia (intraperitoneal) in B6D2F1 (BDF1) mice
Details: endpoint: median survival time; dose: 200.0 mg/kg/injection; schedule: Q04DX003 (ip); vehicle: saline; higher = longer survival
Inconclusive results and toxic doses are left out.

The examples below pair each entry with its known result.
>  <compound>
N/C(=N\O)c1nn(C2OC(CO)C(O)C2O)c2ncnc(N)c12 (configuration not stated)

>  <endpoint_result>
112 % of control

$$$$
>  <compound>
Nc1cc2ccncc2c2sc3ccccc3c12

>  <endpoint_result>
97 % of control

$$$$
>  <compound>
CCSC(C)C

>  <endpoint_result>
104 % of control

$$$$

Give T/C for each of the items listed below.
1. CC(=O)OCC(CO)(CO)CO
2. CCOC(=O)CCCC1(C)C(C#N)C(=O)NC(=O)C1C#N (configuration not stated)
3. O=C(Nc1ccc(Nc2ccncc2)cc1)c1ccc(Nc2ccnc3ccc([N+](=O)[O-])cc23)cc1[N+](=O)[O-]
4. CCCCOB(OCCCC)Oc1c(C(C)(C)C)cccc1C(C)(C)C

(A)
1: 100 % of control; 2: 100 % of control; 3: 93 % of control; 4: 112 % of control

###

Test system: BDF1 mice, P388 leukemia ip, median survival T/C
Assay: NCI In Vivo Anticancer Drug Screen. Data for tumor model P388 Leukemia (intraperitoneal) in B6D2F1 (BDF1) mice
Settings: endpoint: median survival time; dose: 12.5 mg/kg/injection; schedule: Q01DX009 (ip); vehicle: saline with Tween-80; higher = longer survival
Toxic doses and inconclusive results are not listed.
Would you mind telling me the reported T/C of each entry?

>  <compound>
Nc1ccc(OCc2ccccc2)cc1

>  <T/C>
100 % of control

$$$$
>  <compound>
CC1=NNB(O)c2ccsc21

>  <T/C>
107 % of control

$$$$
>  <compound>
CC1CCC2(OC1)OC1C(O)C3C4CCC5CC(OC6OC(CO)C(OC7OC(CO)C(O)C(OC8OCC(O)C(O)C8O)C7OC7OC(CO)C(O)C(OC8OC(CO)C(O)C(O)C8O)C7O)C(O)C6O)C(O)CC5(C)C4CCC3(C)C1C2C (stereo not given)

>  <T/C>
95 % of control

$$$$
>  <compound>
O=CNc1ccc(/C=C\c2ccnc3ccccc23)cc1

>  <T/C>
103 % of control

$$$$

Please look at the items below and tell me T/C for each one, in order.
1. Nc1cccc(NC=O)c1
2. OC(Cc1ccc2ccccc2n1)C(Cl)(Cl)Cl (stereo not given)
3. COP(=O)(OC)OC=C(Cl)Cl
4. O=C(O)C1CC2C=CC1C2 (stereo not given)
5. O=C(C=C(C(F)(F)F)C(F)(F)F)c1cccc(C(F)(F)F)c1
6. CN1CCN(C(=O)c2ccc(Cl)c(Cl)c2)CC1
7. Br[CH2][Sn]([Br])([Br])[CH2]Br

(A)
100 % of control
100 % of control
103 % of control
118 % of control
120 % of control
103 % of control
115 % of control
